B1: library; a variant is named by its letters at N, in order (parent)
chain: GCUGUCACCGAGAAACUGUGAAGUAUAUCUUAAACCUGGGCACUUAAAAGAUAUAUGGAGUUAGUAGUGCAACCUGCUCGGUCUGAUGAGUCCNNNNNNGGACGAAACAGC

variants of: B1; test: normalized RNA/DNA level without ligand (relative to sTRSVctl = 100) (log10 (% of sTRSVctl)); HEK293T; ligand: cyclic di-GMP (c-di-GMP-II aptamer); higher = less ribozyme self-cleavage, higher mRNA level; conditions: reporter: mCherry (pCS4076), ligand present: no
Readout Type: normalized RNA/DNA level without ligand (log10)
Just the number, please.

Exam item: What value of normalized RNA/DNA level without ligand (log10) has been recorded for this entry: GCUGUCACCGAGAAACUGUGAAGUAUAUCUUAAACCUGGGCACUUAAAAGAUAUAUGGAGUUAGUAGUGCAACCUGCUCGGUCUGAUGAGUCCGCGGUUGGACGAAACAGC [GCGGUU]
Marked response: 1.6

Exam item: What value of normalized RNA/DNA level without ligand (log10) has been recorded for this entry: GCUGUCACCGAGAAACUGUGAAGUAUAUCUUAAACCUGGGCACUUAAAAGAUAUAUGGAGUUAGUAGUGCAACCUGCUCGGUCUGAUGAGUCCAGGACUGGACGAAACAGC [AGGACU]
Marked response: 1.66

Exam item: What value of normalized RNA/DNA level without ligand (log10) has been recorded for this entry: GCUGUCACCGAGAAACUGUGAAGUAUAUCUUAAACCUGGGCACUUAAAAGAUAUAUGGAGUUAGUAGUGCAACCUGCUCGGUCUGAUGAGUCCGUGUACGGACGAAACAGC [GUGUAC]
Marked response: 1.58

Exam item: What value of normalized RNA/DNA level without ligand (log10) has been recorded for this entry: GCUGUCACCGAGAAACUGUGAAGUAUAUCUUAAACCUGGGCACUUAAAAGAUAUAUGGAGUUAGUAGUGCAACCUGCUCGGUCUGAUGAGUCCCACACUGGACGAAACAGC [CACACU]
Marked response: 1.52

Exam item: What value of normalized RNA/DNA level without ligand (log10) has been recorded for this entry: GCUGUCACCGAGAAACUGUGAAGUAUAUCUUAAACCUGGGCACUUAAAAGAUAUAUGGAGUUAGUAGUGCAACCUGCUCGGUCUGAUGAGUCCUUCAACGGACGAAACAGC [UUCAAC]
Marked response: 1.69

Exam item: What value of normalized RNA/DNA level without ligand (log10) has been recorded for this entry: GCUGUCACCGAGAAACUGUGAAGUAUAUCUUAAACCUGGGCACUUAAAAGAUAUAUGGAGUUAGUAGUGCAACCUGCUCGGUCUGAUGAGUCCACCCGGGGACGAAACAGC [ACCCGG]
Marked response: 1.7

Exam item: What value of normalized RNA/DNA level without ligand (log10) has been recorded for this entry: GCUGUCACCGAGAAACUGUGAAGUAUAUCUUAAACCUGGGCACUUAAAAGAUAUAUGGAGUUAGUAGUGCAACCUGCUCGGUCUGAUGAGUCCUAUCGUGGACGAAACAGC [UAUCGU]
Marked response: 1.67
